The binders listed here are annotated with their pEC50.
subject.of.test: T1, human LAG3, full length, stably expressed on cells (human, UniProt P18627 23-525)
T1 construct: whole, on cells; also called CHOK1-human LAG3
T1 sequence (looked up): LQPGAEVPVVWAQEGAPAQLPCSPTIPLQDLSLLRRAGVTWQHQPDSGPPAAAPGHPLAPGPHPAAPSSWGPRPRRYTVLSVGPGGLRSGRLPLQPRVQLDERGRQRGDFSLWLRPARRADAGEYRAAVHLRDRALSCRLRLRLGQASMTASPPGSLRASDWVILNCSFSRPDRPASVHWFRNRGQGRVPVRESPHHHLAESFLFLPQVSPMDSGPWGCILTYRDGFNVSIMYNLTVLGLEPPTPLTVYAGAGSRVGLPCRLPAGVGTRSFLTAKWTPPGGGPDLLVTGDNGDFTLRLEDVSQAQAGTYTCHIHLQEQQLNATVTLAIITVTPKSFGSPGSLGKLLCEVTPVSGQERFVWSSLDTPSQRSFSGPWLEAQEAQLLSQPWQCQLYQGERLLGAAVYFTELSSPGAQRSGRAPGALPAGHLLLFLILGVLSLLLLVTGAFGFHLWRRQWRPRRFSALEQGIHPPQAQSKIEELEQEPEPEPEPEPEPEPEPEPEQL
test.protocol: FACS on CHOK1 cells stably expressing human LAG3
Procedure: MFI was detected and EC₅₀ was calculated using GraphPad Prism9.0.
Schema: pEC50 number; meaning minus log10 of the concentration expressed in molar units.

Example entries and their recorded answers appear below.
* 021c (antibody, human IgG4, V domains shown, human IgG4 S228P / kappa chimeric antibody; also called chimeric antibody 021; not shown: human kappa light chain constant region (pcDNA3.4-hIgGk vector)) VH: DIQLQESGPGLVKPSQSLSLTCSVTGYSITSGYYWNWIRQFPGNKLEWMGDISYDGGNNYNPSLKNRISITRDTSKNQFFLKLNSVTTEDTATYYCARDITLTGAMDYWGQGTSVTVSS VL: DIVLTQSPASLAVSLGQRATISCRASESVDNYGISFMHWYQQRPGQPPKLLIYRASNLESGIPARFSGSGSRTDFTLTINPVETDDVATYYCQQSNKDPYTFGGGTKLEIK | 8.80
* hu021.269 (antibody, V domains shown, humanized from 021c) VH: QVQLQESGPGLVKPSQTLSLTCTVSGYSITSGYYWNWIRQHPGNKLEWIGDISYDGGNNYNPSLKNRVTISRDTSKNQFSLKLSSVTAADTAVYYCARDITLTGAMDYWGQGTTVTVSS VL: EIVLTQSPATLSLSPGERATLSCRASESVDNYGISFMHWYQQKPGQAPRLLIYRASNRESGIPARFSGSGSRTDFTLTISSLEPEDFAVYYCQQSNKDPYTFGQGTKLEIK | 8.64

Summary for this binder, hu021.279 (antibody, V domains shown, humanized from 021c; also called hu21.279) VH: QIQLQESGPGLVKPGQTLSLTCTVSGYSITSGYYWTWIRQHPGNKLEWIGDISYDAGNNYNPSLKNRITISRDTSKNQFSLKLSSVTAEDTATYYCARDITLTGAMDYWGQGTTVTVSS VL: EIVLTQSPATLSLSPGERATLSCRASESVDNYGISFMHWYQQKPGQAPRLLIYRASNLESGIPARFSGSGSGTDFTLTISSLEPEDFAVYYCQQSNKDPYTFGQGTKLEIK : pEC50 is 9.40

Value of pEC50 reported for the binder hu021.212 (antibody, V domains shown, humanized from 021c) VH: QVQLQESGPGLVKPSQTLSLTCTVSGYSISSGYYWNWIRQHPGNKLEWIGDISYEGGNNYNPSLKNRVTISRDTSKNQFSLKLSSVTAADTAVYYCARDITLTGAMDYWGQGTTVTVSS VL: EIVLTQSPATLSLSPGERATLSCRASESVDNYGISFMHWYQQKPGQAPRLLIYRASNLETGIPARFSGSGSRTDFTLTISSLEPEDFAVYYCQQSNKDPYTFGQGTKLEIK is 8.74
